Give measured CC50 for each item. Keep answers brief.
- System: IGROV-ET
- assay.comment: SRB colorimetric cell growth inhibition assay, IGROV-ET (ET-743 resistant)
- Assay type: cell-based
- conditions.used: Homo sapiens, IGROV-ET; cell killing (cytotoxic effect); read-out: LC50 IGROV-ET
Express your answer in µM, writing the number without its unit.

Prompt line: Using IGROV-ET as the test system, report measured CC50 of COc1cc2c(cc1O)CCn1c-2c(Br)c2c3cc(OC)c(O)cc3oc(=O)c21 .
Response line: 21.8

Prompt line: Using IGROV-ET as the test system, report measured CC50 of COc1cc(-c2c3c4cc(OC)c(OC(=O)CCC5CCCCC5)cc4oc(=O)c3n3ccc4cc(OC(=O)CCC5CCCCC5)c(OC)cc4c23)ccc1OC(=O)CCC1CCCCC1 .
Response line: 10.9

Prompt line: Using IGROV-ET as the test system, report measured CC50 of COc1cc(-c2c3c4cc(OC)c(OC(=O)CCc5ccccc5)cc4oc(=O)c3n3ccc4cc(OC(=O)CCc5ccccc5)c(OC)cc4c23)ccc1OC(=O)CCc1ccccc1 .
Response line: 11.2

---

- Tested on: K-562
- assay.comment: SRB colorimetric cell growth inhibition assay, K-562
- Assay type: cell-based
- conditions.used: Homo sapiens, K562, K-562; total growth inhibition (cytostatic effect); read-out: TGI K-562
- Protocol: The finality of these assays is to interrupt the growth of an “in vitro” tumor cell culture by means a continued exhibition of the cells to the sample to be testing. A colorimetric type of assay, using sulforhodamine B (SRB) reaction has been adapted for a quantitative measurement of cell growth and viability (following the technique described by P. A. Skehan, et al., J. Natl. Cancer Inst. 1990, 82, 1107-1112). […] The values for mean +/− SD of data from triplicate wells are calculated. […]
Please note: True applies when IC (TGI) is 2000 nM or greater, and False applies otherwise.

Prompt line: Hi team, for COc1cc(-c2c3c4cc(OC)c(OC(=O)[C@@H]5CCCN5)cc4oc(=O)c3n3ccc4cc(OC(=O)[C@@H]5CCCN5)c(OC)cc4c23)ccc1OC(=O)[C@@H]1CCCN1 , is the recorded IC (TGI) at or above 2000 nM?
Response line: False

Prompt line: Hi team, for COc1cc(-c2c3n(c4c(=O)oc5cc(OC(=O)c6cc(F)c(F)c(F)c6F)c(OC)cc5c24)CCc2c-3cc(OC)c(OC)c2OC(=O)c2cc(F)c(F)c(F)c2F)ccc1OC(=O)c1cc(F)c(F)c(F)c1F , is the recorded IC (TGI) at or above 2000 nM?
Response line: False

Prompt line: Hi team, for COc1cc(-c2c3n(c4c(=O)oc5cc(OC(=O)[C@@H](N)Cc6c[nH]c7ccccc67)c(OC)cc5c24)CCc2cc(OC(=O)[C@@H](N)Cc4c[nH]c5ccccc45)c(OC)cc2-3)ccc1OC(=O)[C@@H](N)Cc1c[nH]c2ccccc12 , is the recorded IC (TGI) at or above 2000 nM?
Response line: False

Prompt line: Hi team, for COc1cc(-c2c3n(c4c(=O)oc5cc(O)c(OC)cc5c24)CCc2c-3cc(OC)c(OC)c2O)ccc1O , is the recorded IC (TGI) at or above 2000 nM?
Response line: True

Prompt line: Hi team, for COc1cc2ccn3c(c(-c4ccc(OC(=O)[C@@H](NC(=O)OC(C)(C)C)C(C)C)c(OC)c4)c4c5cc(OC)c(OC(=O)[C@@H](NC(=O)OC(C)(C)C)C(C)C)cc5oc(=O)c43)c2cc1OC , is the recorded IC (TGI) at or above 2000 nM?
Response line: True

Prompt line: Hi team, for COc1cc2ccn3c(c(-c4ccc(OC(=O)[C@@H](N)Cc5ccccc5)c(OC)c4)c4c5cc(OC)c(OC(=O)[C@@H](N)Cc6ccccc6)cc5oc(=O)c43)c2cc1OC , is the recorded IC (TGI) at or above 2000 nM?
Response line: False

---

- System: HT-29
- assay.comment: SRB colorimetric cell growth inhibition assay, HT-29
- Type: cell-based
- conditions.used: HT-29; GI=growth inhibition; read-out: GI50 HT-29
Give measured log10 of GI50 for each item. Keep answers brief.
Lab note - GI50 converted to log10 from values in nM.

Prompt line: Fill in log10 of GI50 for record COc1cc2ccn3c(c(-c4ccc(OC(=O)[C@@H](N)C(C)C)c(OC)c4)c4c5cc(OC)c(OC(=O)[C@@H](N)C(C)C)cc5oc(=O)c43)c2cc1OC [Compound 14]
Response line: 3.39

Prompt line: Fill in log10 of GI50 for record COc1cc(-c2c3c4cc(OC)c(OC(=O)[C@@H](N)C(C)C)cc4oc(=O)c3n3ccc4c(OC(=O)[C@@H](N)C(C)C)c(OC)c(OC)cc4c23)ccc1OC(=O)[C@@H](N)C(C)C [Compound 35]
Response line: 3.07

Prompt line: Fill in log10 of GI50 for record COc1cc(-c2c3c4cc(OC)c(OC(=O)[C@@H](N)Cc5ccccc5)cc4oc(=O)c3n3ccc4c(OC(=O)[C@@H](N)Cc5ccccc5)c(OC)c(OC)cc4c23)ccc1OC(=O)[C@@H](N)Cc1ccccc1 [Compound 31]
Response line: 3.88

Prompt line: Fill in log10 of GI50 for record COc1cc2ccn3c(c(-c4ccc(OC(=O)[C@@H](N)C(C)C)c(OC)c4)c4c5cc(OC)c(OC(=O)[C@@H](N)C(C)C)cc5oc(=O)c43)c2cc1OC [Compound 19]
Response line: 2.04

Prompt line: Fill in log10 of GI50 for record COc1cc(-c2c3n(c4c(=O)oc5cc(OC(C)=O)c(OC)cc5c24)CCc2cc(OC)c(OC(C)=O)cc2-3)ccc1OC(C)=O
Response line: 4.19

Prompt line: Fill in log10 of GI50 for record COc1cc(-c2c3n(c4c(=O)oc5cc(OC(=O)[C@@H](N)C(C)C)c(OC)cc5c24)CCc2cc(OC(=O)[C@@H](N)C(C)C)c(OC)cc2-3)ccc1OC(=O)[C@@H](N)C(C)C [Compound 135]
Response line: 3.06

---

- Tested on: LNCaP
- assay.comment: SRB colorimetric cell growth inhibition assay, LNCaP
- Assay type: cell-based
- conditions.used: LN-caP; total growth inhibition (cytostatic effect)
- Procedure: The finality of these assays is to interrupt the growth of an “in vitro” tumor cell culture by means a continued exhibition of the cells to the sample to be testing. A colorimetric type of assay, using sulforhodamine B (SRB) reaction has been adapted for a quantitative measurement of cell growth and viability (following the technique described by P. A. Skehan, et al., J. Natl. Cancer Inst. 1990, 82, 1107-1112). […] The values for mean +/− SD of data from triplicate wells are calculated. […]
measured.endpoint: TGI LN-caP (Molar)
Express your answer in Molar, writing the number without its unit.

Prompt line: Fill in TGI LN-caP for record COc1cc(-c2c3c4cc(OC)c(OC(=O)[C@@H](N)Cc5ccccc5)cc4oc(=O)c3n3ccc4c(OC(=O)[C@@H](N)Cc5ccccc5)c(OC)c(OC)cc4c23)ccc1OC(=O)[C@@H](N)Cc1ccccc1
Response line: 9.44E−07

Prompt line: Fill in TGI LN-caP for record COc1cc(-c2c3n(c4c(=O)oc5cc(OS(C)(=O)=O)c(OC)cc5c24)CCc2cc(OS(C)(=O)=O)c(OC)cc2-3)ccc1OS(C)(=O)=O
Response line: 1.82E−06

Prompt line: Fill in TGI LN-caP for record COc1cc(-c2c3n(c4c(=O)oc5cc(OC(=O)[C@@H](N)C(C)C)c(OC)cc5c24)CCc2cc(OC(=O)[C@@H](N)C(C)C)c(OC)cc2-3)ccc1OC(=O)[C@@H](N)C(C)C
Response line: 2.02E−06

Prompt line: Fill in TGI LN-caP for record COc1cc(-c2c3c4cc(OC)c(OC(=O)[C@H](C)N)cc4oc(=O)c3n3ccc4cc(O)c(OC)cc4c23)ccc1O.Cl
Response line: 1.65E−05

Prompt line: Fill in TGI LN-caP for record COc1cc(-c2c3c4cc(OC)c(OC(=O)[C@H](C)N)cc4oc(=O)c3n3ccc4c(OC(=O)[C@H](C)N)c(OC)c(OC)cc4c23)ccc1OC(=O)[C@H](C)N [Compound 191]
Response line: 1.48E−06

---

- System: LoVo-Dox
- assay.comment: SRB colorimetric cell growth inhibition assay, LoVo-Dox (MDR)
- Assay type: cell-based
- conditions.used: Homo sapiens, LOVO-DOX; GI=growth inhibition; read-out: GI50 LOVO-DOX
- Description: The finality of these assays is to interrupt the growth of an “in vitro” tumor cell culture by means a continued exhibition of the cells to the sample to be testing. A colorimetric type of assay, using sulforhodamine B (SRB) reaction has been adapted for a quantitative measurement of cell growth and viability (following the technique described by P. A. Skehan, et al., J. Natl. Cancer Inst. 1990, 82, 1107-1112). […] The values for mean +/− SD of data from triplicate wells are calculated. […]
measured.endpoint: log10 GI50 (log10 of the value in nM)
Lab note - GI50 converted to log10 from values in nM.

Prompt line: Fill in log10 GI50 for record COc1cc(-c2c3c4cc(OC)c(OC(=O)[C@H](C)N)cc4oc(=O)c3n3ccc4cc(OC(=O)[C@H](C)N)c(OC)cc4c23)ccc1OC(=O)[C@H](C)N
Response line: 1.87

Prompt line: Fill in log10 GI50 for record COc1cc(-c2c3n(c4c(=O)oc5cc(OC(=O)[C@H](N)C(C)C)c(OC)cc5c24)CCc2cc(OC(=O)[C@H](N)C(C)C)c(OC)cc2-3)ccc1OC(=O)[C@H](N)C(C)C
Response line: 2.83

Prompt line: Fill in log10 GI50 for record COc1cc(-c2c3c4cc(OC)c(OC(=O)[C@H](C)NC(=O)[C@H](C)N)cc4oc(=O)c3n3ccc4c(OC(=O)[C@H](C)NC(=O)[C@H](C)N)c(OC)c(OC)cc4c23)ccc1OC(=O)[C@H](C)NC(=O)[C@H](C)N
Response line: 2.61

Prompt line: Fill in log10 GI50 for record COc1cc2c(cc1OC)-c1c(-c3ccc(OC(=O)CCc4ccccc4)c(OC)c3)c3c4cc(OC)c(OC(=O)CCc5ccccc5)cc4oc(=O)c3n1CC2
Response line: 3.53

Prompt line: Fill in log10 GI50 for record COc1cc(-c2c3c4cc(OC)c(OC(C)C)cc4oc(=O)c3n3ccc4c(OC(C)C)c(OC)c(OC)c(COS(C)(=O)=O)c4c23)ccc1OC(C)C
Response line: 4.12
